# tested target: T1, tissue factor (S33 to E251) (Homo sapiens, UniProt P13726)
# T1 construct: tissue factor (TF), residues S33 to E251; the antigen of the antibody D3h44 in PDB 1JPS; The tag was removed with Ulp1; tag-free TF was used; Antigen residues named in the text (S202, K169, P194, I152) follow the numbering of PDB 1JPS, not that of the construct limits; also called TF; antigen; source: E. coli BL21 (DE3), purified (Ni-NTA, SEC); not shown: His6, N-terminal, cleaved; SUMO, …
# T1 sequence (P13726 33-251): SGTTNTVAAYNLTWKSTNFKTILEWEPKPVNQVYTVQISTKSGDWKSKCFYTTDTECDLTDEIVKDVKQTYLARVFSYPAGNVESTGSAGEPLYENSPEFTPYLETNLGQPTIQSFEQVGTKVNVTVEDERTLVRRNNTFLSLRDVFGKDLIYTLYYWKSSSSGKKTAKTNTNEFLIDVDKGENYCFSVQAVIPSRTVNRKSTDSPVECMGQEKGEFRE
# assay: SPR; Biacore 8K; TF immobilised on a CM5 chip by amine coupling (450-750 response units); Fab as analyte; single-cycle kinetics, association 120 s, dissociation 1800 s, no regeneration; PBS with 0.005% Tween-20; three measurements
# run conditions: both partners purified
# maps each entry to its kon
Number only, in M⁻¹ s⁻¹; omit the unit.

Completed entries (count: 2):
binder: D3h44 Fab H-N57Y (Fab, V domains shown, as the heavy chain of m2 (PDB 1JPS chain H) with the stated change; as the light chain of m2 (PDB 1JPS chain L); Tag as for m2; source: ExpiCHO, purified (Ni-NTA, SEC)) VH: EVQLVESGGGLVQPGGSLRLSCAASGFNIKEYYMHWVRQAPGKGLEWVGLIDPEQGYTIYDPKFQDRATISADNSKNTAYLQMNSLRAEDTAVYYCARDTAAYFDYWGQGTLVTVSS VL: DIQMTQSPSSLSASVGDRVTITCRASRDIKSYLNWYQQKPGKAPKVLIYYATSLAEGVPSRFSGSGSGTDYTLTISSLQPEDFATYYCLQHGESPWTFGQGTKVEIK
metric name: kon
meas value: 1.3e+06

binder: D3h44 Fab L-H91E (Fab, V domains shown, as the heavy chain of m2 (PDB 1JPS chain H); as the light chain of m2 (PDB 1JPS chain L) with the stated change; Tag as for m2; source: ExpiCHO, purified (Ni-NTA, SEC)) VH: EVQLVESGGGLVQPGGSLRLSCAASGFNIKEYYMHWVRQAPGKGLEWVGLIDPEQGNTIYDPKFQDRATISADNSKNTAYLQMNSLRAEDTAVYYCARDTAAYFDYWGQGTLVTVSS VL: DIQMTQSPSSLSASVGDRVTITCRASRDIKSYLNWYQQKPGKAPKVLIYYATSLAEGVPSRFSGSGSGTDYTLTISSLQPEDFATYYCLQEGESPWTFGQGTKVEIK
metric name: kon
meas value: 1.4e+06

// moving on: another record for kon
[ask] Entry D3h44 Fab H-K30Q (Fab, V domains shown, as the heavy chain of m2 (PDB 1JPS chain H) with the stated change; as the light chain of m2 (PDB 1JPS chain L); Tag as for m2; source: ExpiCHO, purified (Ni-NTA, SEC)) VH: EVQLVESGGGLVQPGGSLRLSCAASGFNIQEYYMHWVRQAPGKGLEWVGLIDPEQGNTIYDPKFQDRATISADNSKNTAYLQMNSLRAEDTAVYYCARDTAAYFDYWGQGTLVTVSS VL: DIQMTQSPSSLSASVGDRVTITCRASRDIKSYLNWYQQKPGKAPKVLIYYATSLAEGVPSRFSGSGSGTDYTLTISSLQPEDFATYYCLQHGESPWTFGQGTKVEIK has what kon?
[reply] 1.5e+06
